molecular target: human Oxytocin (OTR) receptor (Homo sapiens, UniProt P30559); assay: Calcium flux assay (FLIPR) in CHO cells expressing human OTR; settings: agonist mode, CHO cells, calcium flux FLIPR; read-out: hOT EC50
Where a SMILES comes first, the peptide text is derived from it.
In this section, each of the compounds is paired with its reported EC50.
Give the value in nM but do not write nM after it.

human Oxytocin (OTR) receptor (Homo sapiens, UniProt P30559) / EC50 / CC[C@H](C)[C@@H]1NC(=O)[C@H](Cc2ccc(O)cc2)NC(=O)CCS(=O)(=O)CC[C@@H](C(=O)N2CCCC[C@H]2C(=O)N[C@@H](CC(C)C)C(=O)NCC(N)=O)NC(=O)[C@H](CC(N)=O)NC(=O)[C@H](CCC(N)=O)NC1=O [Example 5] (HELM PEPTIDE1{Y.I.Q.N.[O=C([C@H](CCS(=O)(=O)CCC(=O)[*:3])N[*:1])[*:2]].[O=C([C@@H]1CCCCN1[*:1])[*:2]].L.G.[am]}$PEPTIDE1,PEPTIDE1,1:R1-5:R3$$$V2.0) : value?
3.8

human Oxytocin (OTR) receptor (Homo sapiens, UniProt P30559) / EC50 / CC[C@H](C)[C@@H]1NC(=O)[C@H](Cc2ccc(O)cc2)NC(=O)CCS(=O)(=O)CC[C@@H](C(=O)N(C)CC(=O)N[C@H](C(=O)NCC(N)=O)C(C)C)NC(=O)[C@H](CC(N)=O)NC(=O)[C@H](CCC(N)=O)NC1=O [Example 12] (HELM PEPTIDE1{Y.I.Q.N.[O=C([C@H](CCS(=O)(=O)CCC(=O)[*:3])N[*:1])[*:2]].[Sar].V.G.[am]}$PEPTIDE1,PEPTIDE1,1:R1-5:R3$$$V2.0) : value?
1.4

human Oxytocin (OTR) receptor (Homo sapiens, UniProt P30559) / EC50 / CC[C@H](C)[C@@H]1NC(=O)[C@H](Cc2ccc(O)cc2)NC(=O)CCS(=O)(=O)CC[C@@H](C(=O)N[C@@H](CCO)C(=O)N[C@@H](CC(C)C)C(=O)NCC(N)=O)NC(=O)[C@H](CC(N)=O)NC(=O)[C@H](CCC(N)=O)NC1=O [Example 26] (HELM PEPTIDE1{Y.I.Q.N.[O=C([C@H](CCS(=O)(=O)CCC(=O)[*:3])N[*:1])[*:2]].[O=C([C@H](CCO)N[*:1])[*:2]].L.G.[am]}$PEPTIDE1,PEPTIDE1,1:R1-5:R3$$$V2.0) : value?
7

----------
In this section, each of the compounds is paired with its reported Emax.
Molecular target: human Oxytocin (OTR) receptor (Homo sapiens)
Construct: expressed in transfected cells
Sequence (P30559 1-389): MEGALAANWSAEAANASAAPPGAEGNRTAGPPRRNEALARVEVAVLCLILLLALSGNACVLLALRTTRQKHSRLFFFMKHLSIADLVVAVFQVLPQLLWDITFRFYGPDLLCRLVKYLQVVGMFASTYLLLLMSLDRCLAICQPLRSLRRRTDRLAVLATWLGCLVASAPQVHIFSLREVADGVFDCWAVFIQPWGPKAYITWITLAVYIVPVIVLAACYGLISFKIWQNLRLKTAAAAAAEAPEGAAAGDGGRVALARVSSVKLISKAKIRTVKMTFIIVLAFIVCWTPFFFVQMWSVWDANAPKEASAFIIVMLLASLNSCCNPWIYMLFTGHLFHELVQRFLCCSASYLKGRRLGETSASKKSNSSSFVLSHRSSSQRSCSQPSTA
Assay: Calcium flux assay (FLIPR) in CHO cells expressing human OTR
Format: cell-based
Details: CHO; maximum response normalized to endogenous full agonist = 100%; read-out: hOT efficacy
Where a SMILES comes first, the peptide text is derived from it.
Give the value in % but do not write % after it.

>>> result_value("CC[C@H](C)[C@@H]1NC(=O)[C@H](Cc2ccc(O)cc2)NC(=O)CCS(=O)(=O)CC[C@@H](C(=O)N(C)CC(=O)N[C@@H](CN)C(=O)NCC(N)=O)NC(=O)[C@H](CC(N)=O)NC(=O)[C@H](CCC(N)=O)NC1=O [Example 20] (HELM PEPTIDE1{Y.I.Q.N.[O=C([C@H](CCS(=O)(=O)CCC(=O)[*:3])N[*:1])[*:2]].[Sar].[NC[C@H](N[*:1])C(=O)[*:2]].G.[am]}$PEPTIDE1,PEPTIDE1,1:R1-5:R3$$$V2.0)")
113

State the recorded Emax for this entry: CC[C@H](C)[C@H](NC(=O)CN(C(=O)[C@@H]1CCS(=O)(=O)CCC(=O)N[C@@H](Cc2ccc(O)cc2)C(=O)N[C@@H]([C@@H](C)CC)C(=O)N[C@@H](CCC(N)=O)C(=O)N[C@@H](CC(N)=O)C(=O)N1)C1CC1)C(=O)NCC(N)=O [Example 31] (HELM PEPTIDE1{Y.I.Q.N.[O=C([C@H](CCS(=O)(=O)CCC(=O)[*:3])N[*:1])[*:2]].[O=C(CN(C1CC1)[*:1])[*:2]].I.G.[am]}$PEPTIDE1,PEPTIDE1,1:R1-5:R3$$$V2.0)
115

----------
biological target: UniProt:P37288; test: Calcium flux assay (FLIPR) in CHO cells expressing human V1a; conditions: agonist mode, CHO cells, calcium flux FLIPR; read-out: hV1a EC50
Sequence (P37288 whole entry): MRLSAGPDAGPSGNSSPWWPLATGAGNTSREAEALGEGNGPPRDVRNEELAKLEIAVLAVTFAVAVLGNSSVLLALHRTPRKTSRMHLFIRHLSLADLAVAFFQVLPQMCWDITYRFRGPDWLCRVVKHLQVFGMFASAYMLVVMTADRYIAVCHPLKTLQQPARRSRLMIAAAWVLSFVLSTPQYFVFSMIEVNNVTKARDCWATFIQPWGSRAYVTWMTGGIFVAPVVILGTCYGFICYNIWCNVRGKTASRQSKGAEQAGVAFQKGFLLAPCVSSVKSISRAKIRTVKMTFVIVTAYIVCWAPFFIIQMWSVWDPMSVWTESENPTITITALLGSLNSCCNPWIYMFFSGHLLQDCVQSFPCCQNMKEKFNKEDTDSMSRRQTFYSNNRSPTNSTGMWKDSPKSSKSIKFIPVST
Where a SMILES comes first, the peptide text is derived from it.
assay-endpoint: EC50 (µM)
Give the value in µM but do not write µM after it.

State the recorded EC50 for this entry: CC[C@H](C)[C@@H]1NC(=O)[C@H](Cc2ccc(O)cc2)NC(=O)CCS(=O)(=O)CC[C@@H](C(=O)N2CCC[C@H]2C(=O)N[C@@H](CC(C)C)C(=O)NCC(N)=O)NC(=O)[C@H](CC(N)=O)NC(=O)[C@H](CCC(N)=O)NC1=O [Example 1] (HELM PEPTIDE1{Y.I.Q.N.[O=C([C@H](CCS(=O)(=O)CCC(=O)[*:3])N[*:1])[*:2]].P.L.G.[am]}$PEPTIDE1,PEPTIDE1,1:R1-5:R3$$$V2.0)
1.63

----------
Target: human Oxytocin (OTR) receptor (Homo sapiens, UniProt P30559)
Sequence (P30559 1-389): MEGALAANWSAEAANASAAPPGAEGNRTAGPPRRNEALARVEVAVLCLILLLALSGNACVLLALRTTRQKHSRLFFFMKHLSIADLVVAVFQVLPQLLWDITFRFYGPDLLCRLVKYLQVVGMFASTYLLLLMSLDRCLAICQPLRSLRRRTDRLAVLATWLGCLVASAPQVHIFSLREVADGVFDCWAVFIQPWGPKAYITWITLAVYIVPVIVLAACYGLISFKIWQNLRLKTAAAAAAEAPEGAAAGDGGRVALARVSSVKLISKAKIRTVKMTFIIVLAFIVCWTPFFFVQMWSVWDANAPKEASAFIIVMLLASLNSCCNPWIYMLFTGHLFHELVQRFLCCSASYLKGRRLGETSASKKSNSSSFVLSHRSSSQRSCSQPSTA
Assay: Calcium flux assay (FLIPR) in CHO cells expressing human OTR
Conditions: agonist mode, CHO cells, calcium flux FLIPR; read-out: hOT EC50
Where a SMILES comes first, the peptide text is derived from it.
assay-endpoint: pEC50
Hey, just a heads up that pEC50 is the negative log base 10 of the concentration in molar.

>>> result_value("CC[C@H](C)[C@H](NC(=O)CN(C(=O)[C@@H]1CCS(=O)(=O)CCC(=O)N[C@@H](Cc2ccc(O)cc2)C(=O)N[C@@H]([C@@H](C)CC)C(=O)N[C@@H](CCC(N)=O)C(=O)N[C@@H](CC(N)=O)C(=O)N1)C1CC1)C(=O)NCC(N)=O [Example 31] (HELM PEPTIDE1{Y.I.Q.N.[O=C([C@H](CCS(=O)(=O)CCC(=O)[*:3])N[*:1])[*:2]].[O=C(CN(C1CC1)[*:1])[*:2]].I.G.[am]}$PEPTIDE1,PEPTIDE1,1:R1-5:R3$$$V2.0)")
9.40
>>> result_value("CC[C@H](C)[C@@H]1NC(=O)[C@H](Cc2ccc(O)cc2)NC(=O)CCS(=O)(=O)CC[C@@H](C(=O)N2CC(F)(F)C[C@H]2C(=O)N[C@@H](CC(C)C)C(=O)NCC(N)=O)NC(=O)[C@H](CC(N)=O)NC(=O)[C@H](CCC(N)=O)NC1=O [Example 3] (HELM PEPTIDE1{Y.I.Q.N.[O=C([C@H](CCS(=O)(=O)CCC(=O)[*:3])N[*:1])[*:2]].[O=C([C@@H]1CC(F)(F)CN1[*:1])[*:2]].L.G.[am]}$PEPTIDE1,PEPTIDE1,1:R1-5:R3$$$V2.0)")
8.77

State the recorded pEC50 for this entry: CC[C@H](C)[C@@H]1NC(=O)[C@H](Cc2ccc(O)cc2)NC(=O)CCS(=O)(=O)CC[C@@H](C(=O)N2CC[C@H]2C(=O)N[C@@H](CC(C)C)C(=O)NCC(N)=O)NC(=O)[C@H](CC(N)=O)NC(=O)[C@H](CCC(N)=O)NC1=O [Example 4] (HELM PEPTIDE1{Y.I.Q.N.[O=C([C@H](CCS(=O)(=O)CCC(=O)[*:3])N[*:1])[*:2]].[O=C([C@@H]1CCN1[*:1])[*:2]].L.G.[am]}$PEPTIDE1,PEPTIDE1,1:R1-5:R3$$$V2.0)
8.52

State the recorded pEC50 for this entry: CC[C@H](C)[C@@H]1NC(=O)[C@H](Cc2ccc(O)cc2)NC(=O)CCS(=O)(=O)CC[C@@H](C(=O)N2C[C@@H](F)C[C@H]2C(=O)N[C@@H](CC(C)C)C(=O)NCC(N)=O)NC(=O)[C@H](CC(N)=O)NC(=O)[C@H](CCC(N)=O)NC1=O [Example 7] (HELM PEPTIDE1{Y.I.Q.N.[O=C([C@H](CCS(=O)(=O)CCC(=O)[*:3])N[*:1])[*:2]].[O=C([C@@H]1C[C@H](F)CN1[*:1])[*:2]].L.G.[am]}$PEPTIDE1,PEPTIDE1,1:R1-5:R3$$$V2.0)
8.59

State the recorded pEC50 for this entry: CCC[C@H](NC(=O)[C@@H]1CCS(=O)(=O)CCC(=O)N[C@@H](Cc2ccc(O)cc2)C(=O)N[C@@H]([C@@H](C)CC)C(=O)N[C@@H](CCC(N)=O)C(=O)N[C@@H](CC(N)=O)C(=O)N1)C(=O)N[C@@H](CC(C)C)C(=O)NCC(N)=O [Example 23] (HELM PEPTIDE1{Y.I.Q.N.[O=C([C@H](CCS(=O)(=O)CCC(=O)[*:3])N[*:1])[*:2]].[Nva].L.G.[am]}$PEPTIDE1,PEPTIDE1,1:R1-5:R3$$$V2.0)
7.64
